Tested on: Streptococcus pyogenes C203
EXPERIMENT_NOTES: broth micro-dilution MIC
Type: cell-based
MEASURED_ATTRIBUTE: MIC

MOLECULE: CNC(CC(C)C)C(=O)NC1C(=O)NC(CC(N)=O)C(=O)NC2C(=O)NC3C(=O)NC(C(=O)NC(C(=O)O)c4cc(O)cc(O)c4-c4cc3ccc4O)C(OC3CC(C)(N)C(O)C(C)O3)c3ccc(c(Cl)c3)Oc3cc2cc(c3OC2OC(CO)C(O)C(O)C2OC2CC(C)(NCc3c4ccccc4cc4ccccc34)C(O)C(C)O2)Oc2ccc(cc2Cl)C1O (centres unmarked)
TESTED_ON: Streptococcus pyogenes C203
MEAS_VALUE: ≤ 0.06 µg/mL

MOLECULE: CC(C)CC(C(=O)NC1C(=O)NC(CC(N)=O)C(=O)NC2C(=O)NC3C(=O)NC(C(=O)NC(C(=O)O)c4cc(O)cc(O)c4-c4cc3ccc4O)C(OC3CC(C)(N)C(O)C(C)O3)c3ccc(c(Cl)c3)Oc3cc2cc(c3OC2OC(CO)C(O)C(O)C2OC2CC(C)(NCc3ccc4c(c3)CCCC4)C(O)C(C)O2)Oc2ccc(cc2Cl)C1O)N(C)Cc1ccc2c(c1)CCCC2 (centres unmarked)
TESTED_ON: Streptococcus pyogenes C203
MEAS_VALUE: ≤ 0.06 µg/mL

* * *

System: vancomycin-susceptible enterococci
EXPERIMENT_NOTES: broth micro-dilution, mean geometric MIC
Format: cell-based, Enterococcus faecium and Enterococcus faecalis
CONDITION_INFO: enterococci, 24-hour incubation
MEASURED_ATTRIBUTE: mean geometric MIC, Vancomycin Sensitive Strains

COMPOUND: CC(C)CC(C(=O)NC1C(=O)NC(CC(N)=O)C(=O)NC2C(=O)NC3C(=O)NC(C(=O)NC(C(=O)O)c4cc(O)cc(O)c4-c4cc3ccc4O)C(OC3CC(C)(N)C(O)C(C)O3)c3ccc(c(Cl)c3)Oc3cc2cc(c3OC2OC(CO)C(O)C(O)C2OC2CC(C)(NCc3cccnc3)C(O)C(C)O2)Oc2ccc(cc2Cl)C1O)N(C)Cc1cccnc1 (stereo not drawn)
TESTED_ON: vancomycin-susceptible enterococci
MEAS_VALUE: 7 µg/mL

COMPOUND: CN[C@H](CC(C)C)C(=O)N[C@H]1C(=O)N[C@@H](CC(N)=O)C(=O)N[C@H]2C(=O)N[C@H]3C(=O)N[C@H](C(=O)N[C@H](C(=O)O)c4cc(O)cc(O)c4-c4cc3ccc4O)[C@H](O[C@H]3C[C@](C)(N)[C@@H](O)[C@H](C)O3)c3ccc(c(Cl)c3)Oc3cc2cc(c3O[C@@H]2O[C@H](CO)[C@@H](O)[C@H](O)[C@H]2O[C@H]2C[C@](C)(NCc3ccc(-c4ccc(C)cc4)cc3)[C@@H](O)[C@H](C)O2)Oc2ccc(cc2Cl)[C@H]1O
TESTED_ON: vancomycin-susceptible enterococci
MEAS_VALUE: 0.054 µg/mL

COMPOUND: CNC(CC(C)C)C(=O)NC1C(=O)NC(CC(N)=O)C(=O)NC2C(=O)NC3C(=O)NC(C(=O)NC(C(=O)O)c4cc(O)cc(O)c4-c4cc3ccc4O)C(OC3CC(C)(N)C(O)C(C)O3)c3ccc(c(Cl)c3)Oc3cc2cc(c3OC2OC(CO)C(O)C(O)C2OC2CC(C)(NCc3ccc(-c4ccccc4)cc3)C(O)C(C)O2)Oc2ccc(cc2)C1O (stereo not drawn)
TESTED_ON: vancomycin-susceptible enterococci
MEAS_VALUE: 0.060 µg/mL
